Target Entity: Prp8 intein (Cryptococcus gattii, UniProt E6R027)
Sequence (E6R027 entry or part of it): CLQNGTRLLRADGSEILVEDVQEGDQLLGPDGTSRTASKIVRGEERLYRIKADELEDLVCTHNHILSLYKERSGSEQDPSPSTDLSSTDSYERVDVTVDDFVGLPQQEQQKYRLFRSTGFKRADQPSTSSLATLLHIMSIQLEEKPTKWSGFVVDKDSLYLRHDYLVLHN
Assay Protocol: Split Cys-free (Cf) GFP-Prp8 intein splicing assay
Type: biochemical
Protocol Conditions: read-out: IC50 CfGFP-Prp8 (converted)
Decision: IC50 beneath 30 µM gives Criterion met; IC50 meeting or exceeding 30 µM gives Criterion not met.

# strict comparison: is reported IC50 < 30 µM? input = "O=C(Nc1ccc(F)c(Cl)c1)c1nnsc1S(=O)(=O)c1ccc(Cl)cc1"
Criterion not met

# strict comparison: is reported IC50 < 30 µM? input = "O=C(Nc1ccc(F)cc1)c1nnsc1S(=O)(=O)c1ccc(F)cc1F"
Criterion not met

# strict comparison: is reported IC50 < 30 µM? input = "O=C(Nc1ccc(C(F)(F)F)cc1Cl)c1nnsc1S(=O)(=O)c1ccc(Cl)cc1"
Criterion not met

# strict comparison: is reported IC50 < 30 µM? input = O=C(Nc1ccc(Cl)c(F)c1)c1nnsc1[S+]([O-])c1ccc(Cl)cc1 (centres unmarked)
Criterion not met

# strict comparison: is reported IC50 < 30 µM? input = O=C(Nc1cc(F)c(F)c(F)c1)c1nnsc1[S+]([O-])c1ccc(Cl)cc1 (centres unmarked)
Criterion met
